# pEC50 listing for each entry below
# Study target: Solute carrier family 12 member 5 (Homo sapiens, UniProt Q9H2X9)
# Sequence (Q9H2X9 whole entry): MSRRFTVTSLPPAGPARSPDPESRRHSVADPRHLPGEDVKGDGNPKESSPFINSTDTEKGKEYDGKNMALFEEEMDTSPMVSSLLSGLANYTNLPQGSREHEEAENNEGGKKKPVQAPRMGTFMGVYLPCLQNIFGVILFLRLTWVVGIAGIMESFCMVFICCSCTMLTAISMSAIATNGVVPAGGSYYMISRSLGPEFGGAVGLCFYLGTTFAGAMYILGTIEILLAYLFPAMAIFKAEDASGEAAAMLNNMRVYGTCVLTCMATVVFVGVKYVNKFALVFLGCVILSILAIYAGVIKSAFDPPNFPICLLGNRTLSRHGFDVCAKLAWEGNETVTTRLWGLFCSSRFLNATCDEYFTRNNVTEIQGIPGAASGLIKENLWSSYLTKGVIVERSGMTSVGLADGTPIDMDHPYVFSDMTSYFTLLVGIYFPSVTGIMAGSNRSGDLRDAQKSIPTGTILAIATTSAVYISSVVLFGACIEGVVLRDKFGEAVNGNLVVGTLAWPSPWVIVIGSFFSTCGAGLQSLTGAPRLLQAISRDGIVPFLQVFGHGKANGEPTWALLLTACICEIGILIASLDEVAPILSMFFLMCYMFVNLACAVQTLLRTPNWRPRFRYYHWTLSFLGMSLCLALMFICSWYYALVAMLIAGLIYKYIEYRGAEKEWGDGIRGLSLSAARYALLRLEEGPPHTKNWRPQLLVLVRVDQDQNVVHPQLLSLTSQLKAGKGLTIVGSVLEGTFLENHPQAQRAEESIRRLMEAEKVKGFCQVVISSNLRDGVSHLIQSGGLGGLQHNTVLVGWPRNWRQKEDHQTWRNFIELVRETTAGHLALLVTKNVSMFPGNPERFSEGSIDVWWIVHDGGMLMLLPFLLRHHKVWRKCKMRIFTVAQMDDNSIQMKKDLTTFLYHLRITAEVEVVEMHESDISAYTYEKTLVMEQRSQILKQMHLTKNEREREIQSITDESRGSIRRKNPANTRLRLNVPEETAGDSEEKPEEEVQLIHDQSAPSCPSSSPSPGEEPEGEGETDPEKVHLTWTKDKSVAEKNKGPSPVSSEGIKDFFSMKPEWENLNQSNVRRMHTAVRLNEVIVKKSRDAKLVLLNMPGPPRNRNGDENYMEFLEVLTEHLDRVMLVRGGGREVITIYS
# Test summary: concentration-response of KCC2 transport modulators – cell-based, HEK293 KCC2, FluoZin-2 fluorescence, dose response (AID 1736)
The value called pEC50 is obtained by taking minus log10 of the concentration in mol/L.

Consider the reported pEC50 for these molecules:
Molecule | pEC50
Cn1c(CSc2nc3ccccc3s2)nc2ccccc21 | 4.91
O=C(NNc1nc(-c2ccc(F)cc2)cs1)c1ccccc1 | 6.09

Which pEC50 value is on record for COc1ccc(N(CC(=O)Nc2cccc(C)c2C)S(=O)(=O)c2c(C)n[nH]c2C)cc1 ?
4.80

Which pEC50 value is on record for Sc1nnc(Cc2c[nH]c3ccccc23)o1 ?
5.42

Which pEC50 value is on record for O=C(c1ccc(-c2ccccc2)cc1)C1CCCN(Cc2ccncc2)C1 (stereo not given) ?
5.12

Which pEC50 value is on record for CC(NNC(=O)c1ccc(Br)cc1)=C1C(=O)c2ccccc2C1=O ?
5.81

Which pEC50 value is on record for Cc1cc([N+](=O)[O-])ccc1NCc1ccccc1 ?
4.50

Which pEC50 value is on record for CNc1ccc(/C=C(\CCC(=O)O)c2nc3ccccc3s2)cc1[N+](=O)[O-] ?
5.13

Which pEC50 value is on record for O=C(c1ccccc1SCc1ccc(F)cc1)N1CCOCC1 ?
5.05

Which pEC50 value is on record for CC(=O)NCC1CCCN(c2nc3nonc3nc2N(C)Cc2ccccc2)C1 (stereo not given) ?
5.77
